Tested on: benzodiazepine receptors
assayName: in vivo displacement of 3H-flunitrazepam from benzodiazepine receptors in living mouse brain
experimentalSetup: dose reducing specific 3H-flunitrazepam binding to 50% of control; mice, usually subcutaneously, 15 min before 3H-flunitrazepam i.v., killed after a further 20 min, forebrain membranes
Threshold 0.4 mg/kg. in vivo ED50 below it: met. in vivo ED50 at it or above: not met.

>>> print(df.to_string())
                                   compound  assignedcategory
0  CCc1noc(-c2ncn3c2CN(C)C(=O)c2c(C)cccc2-3)n1           not met
1  CCc1nc(-c2ncn3c2CN(C)C(=O)c2c-3cccc2C(F)(F)F)no1           not met
2  COc1ccc2c(c1)C(=O)N(C)Cc1c(-c3nc(C)no3)ncn1-2           not met
3  Cc1cccc2c1C(=O)N1CCC1c1c(-c3nc(C4CC4)no3)ncn1-2 (centres unmarked)               met

----------
Measured pIC50, listed per entry for reference.
assayedSystem: benzodiazepine receptors
assayName: displacement of 3H-Ro 15-1788 from benzodiazepine receptors in vitro (rat cerebral cortical membrane homogenate)
experimentalSetup: 50% displacement of specific binding of 3H-Ro 15-1788, 30° C.
pIC50: −log10 of the molar value.
recordedEndpoint: pIC50

In [3]: df
Out[3]:
                                   compound  observed
0  CCc1nc(-c2ncn3c2CN(C)C(=O)c2c-3cccc2C(F)(F)F)no1      8.25
1  Cc1cccc2c1C(=O)N1CCC1c1c(-c3nc(C4CC4)no3)ncn1-2 (stereo not shown)      7.64
2  CCc1noc(-c2ncn3c2C2CCN2C(=O)c2c(C)cccc2-3)n1 (stereo not shown)      7.52
3  CCc1noc(-c2ncn3c2CN(C)C(=O)c2c(C)cccc2-3)n1      7.35
